Data origin, for the record: paper PMC9781087

Molecular target: collagenase A (ColA) (Clostridium perfringens)
Sequence (P43153 87-1104 limits assumed): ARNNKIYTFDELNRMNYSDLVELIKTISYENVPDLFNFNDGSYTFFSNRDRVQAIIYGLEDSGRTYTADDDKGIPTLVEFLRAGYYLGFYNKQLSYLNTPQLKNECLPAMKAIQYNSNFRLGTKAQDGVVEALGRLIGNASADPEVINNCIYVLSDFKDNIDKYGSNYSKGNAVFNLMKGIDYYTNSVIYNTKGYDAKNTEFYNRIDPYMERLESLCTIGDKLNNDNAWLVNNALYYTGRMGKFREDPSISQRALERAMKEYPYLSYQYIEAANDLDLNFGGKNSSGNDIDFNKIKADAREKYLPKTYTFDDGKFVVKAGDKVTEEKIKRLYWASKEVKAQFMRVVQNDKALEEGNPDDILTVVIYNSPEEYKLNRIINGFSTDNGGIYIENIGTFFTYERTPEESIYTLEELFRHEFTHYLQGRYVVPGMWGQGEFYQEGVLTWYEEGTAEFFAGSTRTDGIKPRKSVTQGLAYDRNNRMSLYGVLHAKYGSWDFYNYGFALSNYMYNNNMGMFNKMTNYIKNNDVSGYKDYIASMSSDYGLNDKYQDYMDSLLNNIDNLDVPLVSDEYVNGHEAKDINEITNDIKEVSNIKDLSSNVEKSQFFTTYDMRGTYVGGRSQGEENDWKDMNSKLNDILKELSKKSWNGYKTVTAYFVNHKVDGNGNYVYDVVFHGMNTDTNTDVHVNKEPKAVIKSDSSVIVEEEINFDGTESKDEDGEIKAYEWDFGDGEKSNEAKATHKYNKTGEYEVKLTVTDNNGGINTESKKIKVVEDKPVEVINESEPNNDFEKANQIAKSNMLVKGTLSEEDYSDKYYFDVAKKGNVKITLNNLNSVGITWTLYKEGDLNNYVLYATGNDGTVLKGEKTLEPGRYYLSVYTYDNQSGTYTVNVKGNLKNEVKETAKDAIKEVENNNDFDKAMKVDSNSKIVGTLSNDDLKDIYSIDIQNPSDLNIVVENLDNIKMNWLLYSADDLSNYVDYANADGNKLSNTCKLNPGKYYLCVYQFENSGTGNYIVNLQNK
Assay: biochemical
Set-up: species or system C. perfringens
Details: read-out: Inhibition (%) on ColA
METRIC NAME: inhibition at 50 µM (%)
Could you give me the number in %? Just the number is fine.

>>> data_value("O=C(O)c1cc(O)c2c(c1)C(=O)c1cccc(O)c1C2=O")
77.3
>>> data_value("O=C1C=CC(=O)c2c(O)cccc21")
80.8
>>> data_value("COc1ccc(-c2coc3cc(O)cc(O)c3c2=O)cc1")
99.1
>>> data_value("O=c1cc(-c2ccc(O)cc2)oc2cccc(O)c12 [4′,5-Dihydroxyflavone, 4′,5-dihydroxyflavone]")
101
>>> data_value("O=C(/C=C/c1ccccc1)c1ccccc1O [2′-Hydroxychalcone, 2′-hydroxychalcone]")
21.8
>>> data_value("COc1cc(/C=C/C(=O)CC(=O)/C=C/c2ccc(O)c(OC)c2)ccc1O")
102

Task: Could you please provide reported inhibition at 50 µM for COc1cc2c(cc1OC)-c1cc3ccc(OC)c(OC)c3c[n+]1CC2 [Palmatine chloride, palmatine chloride] ? Thanks!
Result: 97.9

Task: For O=c1cc(-c2ccccc2)oc2cccc(O)c12 , write its inhibition at 50 µM.
Result: 8.5
